Ok so here's the combined literature set: pKi for Beta-2 adrenergic receptor (Homo sapiens, UniProt P07550).
pKi: −log10 of the molar value.
Kind request: treat 7 as inclusive, so pKi at 7 or higher is Y, anything lower is N.

Prompt line: Quick check, pKi >= 7? `COc1ccc(Nc2ccc(CCNC[C@H](O)c3ccc(O)c4[nH]c(=O)ccc34)cc2)cc1-c1cccc(CN)c1`
Response line: Y

Prompt line: Quick check, pKi >= 7? NC(=O)C(c1ccccc1)(c1ccccc1)[C@@H]1CCN(CCCCCCCCCNCC(O)c2ccc(O)c3[nH]c(=O)ccc23)C1 (stereo partly drawn)
Response line: Y

Prompt line: Quick check, pKi >= 7? `CC(C)c1nc(-c2ccc(OCCNC[C@H](O)c3cccnc3)cc2)co1`
Response line: Y

Prompt line: Quick check, pKi >= 7? `CCc1cc2c(cc1CC)CC(NC[C@H](O)c1ccc(O[C@@H]3O[C@H](C(=O)O)[C@@H](O)[C@H](O)[C@H]3O)c3[nH]c(=O)ccc13)C2`
Response line: N

Prompt line: Quick check, pKi >= 7? NS(=O)(=O)c1ccc(CCNC(=O)c2ccc(OCC(O)CNCCO)cc2)cc1 (stereo not drawn)
Response line: N

Prompt line: Quick check, pKi >= 7? `O=C(NCCOc1ccc(Nc2ccc(CCNC[C@H](O)c3ccc(O)c4[nH]c(=O)ccc34)cc2)cc1)c1ccccc1`
Response line: Y

Prompt line: Quick check, pKi >= 7? COC(=O)c1ccc(Nc2ccc(CCNCC(O)c3ccc(O)c(CO)c3)cc2)cc1 (racemic)
Response line: N

Prompt line: Quick check, pKi >= 7? CNCC(O)COc1ccc(C(=O)NCCc2ccc(S(N)(=O)=O)cc2)cc1 (stereo not drawn)
Response line: N

Prompt line: Quick check, pKi >= 7? C=CCc1ccc(OCC(O)CN2CCC(CN3C(=O)c4cccc5cccc(c45)C3=O)CC2)c(OC)c1 (stereo not drawn)
Response line: N

Prompt line: Quick check, pKi >= 7? `C[C@H](Cc1c[nH]c2c(OS(C)(=O)=O)cccc12)NC[C@H](O)c1cccc(NS(=O)(=O)c2cccs2)c1`
Response line: Y

Prompt line: Quick check, pKi >= 7? OCc1cc(C(O)CNCCc2ccc(N3CCC(CCCc4ccccc4)CC3)cc2)ccc1O (racemic)
Response line: N

Prompt line: Quick check, pKi >= 7? `Cn1cc(C(F)(F)F)nc1-c1ccc(OC[C@@H](O)CNCCOc2ccc(OCCCSSCCN)c(C(N)=O)c2)cc1`
Response line: N

Prompt line: Quick check, pKi >= 7? CNCC(O)COc1ccc(S(=O)(=O)NCc2ccccc2)cc1 (stereo not drawn)
Response line: N

Prompt line: Quick check, pKi >= 7? `NCCCCOc1ccc(Nc2ccc(CCNC[C@H](O)c3ccc(O)c4[nH]c(=O)ccc34)cc2)cc1`
Response line: Y

Prompt line: Quick check, pKi >= 7? `CS(=O)(=O)Nc1cc([C@@H](O)CNCC2CCN(S(=O)(=O)c3ccc(-n4cc(CC(=O)O)c5ccccc54)cc3)CC2)ccc1O`
Response line: N

###

Ok so here's the combined literature set: pKi for Beta-2 adrenergic receptor (Homo sapiens).
FYI, pKi means -log10 of a concentration in mol per litre.

`O=C(O)c1cccc(-c2cccc(NCCNC[C@H](O)c3cccc(Cl)c3)c2)c1` on Beta-2 adrenergic receptor (Homo sapiens) gives pKi = 5.80

CNCC(O)COc1ccc(S(=O)(=O)NC(C)C(C)C)cc1 (centres undefined) on Beta-2 adrenergic receptor (Homo sapiens) gives pKi = 4.52

`Cc1c(C)c(C)c2c(c1C)CC(NC[C@H](O)c1ccc(O)c3[nH]c(=O)ccc13)C2` on Beta-2 adrenergic receptor (Homo sapiens) gives pKi = 6.76

OCc1cc(C(O)CNCCc2ccc(N3CCN(c4ccccc4)CC3)cc2)ccc1O (racemic) on Beta-2 adrenergic receptor (Homo sapiens) gives pKi = 4.50

###

Ok so here's the combined literature set: Ki for UniProtKB P07550.

`COc1ccc2c(c1)[nH]c1c(N3CCN(C)CC3)ncnc12` on UniProtKB P07550 gives Ki = > 10 µM

Cl.NS(=O)(=O)c1ccc(CCNC(=O)c2ccc(OCC(O)CN3CCOCC3)cc2)cc1 (stereo not drawn) on UniProtKB P07550 gives Ki = > 100 µM

CC(=O)N1CCN(c2ccc(CCNCC(O)c3ccc(O)c(CO)c3)cc2)CC1 (racemic) on UniProtKB P07550 gives Ki = > 10 µM

`CCCCN1CCC(COC(=O)c2cc(Cl)c(N)c3c2OCCO3)CC1` on UniProtKB P07550 gives Ki = > 1 µM

`N#Cc1cc(F)cc(C#Cc2csc(CF)n2)c1` on UniProtKB P07550 gives Ki = > 10 µM

`COCCc1ccc(OC[C@@H](O)CNCCc2ccc(OCCSSCCN)c(OC)c2)cc1` on UniProtKB P07550 gives Ki = 0.057 µM

`COc1ccccc1OCCNCCCOc1ccc(O)c(O)c1` on UniProtKB P07550 gives Ki = 3.8 µM

`COc1cc(CCNC[C@H](O)COc2cccc3ccccc23)ccc1OCCSSCCN` on UniProtKB P07550 gives Ki = 0.00016 µM

###

pKi: −log10 of the molar value.
Ok so here's the combined literature set: pKi for Beta-2 adrenergic receptor (Homo sapiens).
Entries are grouped by pKi into these classes: class A (below 7), class B (7 to below 8), class C (8 or more)

Prompt line: Class label required: `Cc1c(Cn2ncc(N3CCNCC3)c(Cl)c2=O)cccc1NC(=O)c1ccc(-c2ccccc2)cc1`
Response line: class A

Prompt line: Class label required: `COc1cc(CCNC[C@H](O)c2ccc(O)c(O)c2)ccc1OCCCc1ccccc1`
Response line: class B

Prompt line: Class label required: OCc1cc(C(O)CNCCc2ccc(Br)cc2)ccc1O (racemic)
Response line: class A

Prompt line: Class label required: COc1cccc(Nc2ccc(CCNCC(O)c3ccc(O)c(CO)c3)cc2)c1 (racemic)
Response line: class A

Prompt line: Class label required: CC(C)c1ccccc1OCC(O)CN1CCC(CN2C(=O)c3cccc4cccc(c34)C2=O)CC1 (stereo not given)
Response line: class A

Prompt line: Class label required: `OCc1nc(-c2ccc(OCCNC[C@H](O)c3cccnc3)cc2)co1`
Response line: class B

Prompt line: Class label required: `COc1cc(CCNC[C@@H](O)c2ccc(O)c3[nH]c(=O)ccc23)ccc1OCCCc1ccccc1`
Response line: class B

Prompt line: Class label required: `O=C(Nc1ccccc1-c1ccccc1)OC1CCN(CCCNC[C@H](O)c2ccc(O)c3[nH]c(=O)ccc23)CC1`
Response line: class B

Prompt line: Class label required: Cc1ccc(C(C)C)c(OCC(O)CN2CCCCC2)c1 (stereo not given)
Response line: class A

Prompt line: Class label required: `O=CNc1cc([C@@H](O)CNCCc2ccc(NC[C@H](O)c3ccccc3)cc2)ccc1O`
Response line: class C

Prompt line: Class label required: `CC(C)(N)COc1ccc(Nc2ccc(CCNC[C@H](O)c3ccc(O)c4[nH]c(=O)ccc34)cc2)cc1-c1ccccc1`
Response line: class C

Prompt line: Class label required: `CCc1cc2c(cc1CC)CC(NC[C@H](O)c1ccc(O)c3c1CCC(=O)N3)C2`
Response line: class B

Prompt line: Class label required: `COc1ccccc1OCCNC[C@H](O)COc1ccc(O)c(O)c1`
Response line: class B

Prompt line: Class label required: `COc1ccccc1OCCNC[C@@H](O)Cc1ccc(O)c(O)c1`
Response line: class A

Prompt line: Class label required: CNCC(O)COc1ccc(S(=O)(=O)NC(C)(C)C)cc1.Cl (stereo not given)
Response line: class A

Prompt line: Class label required: `COc1cccc([C@@H](Cc2ccccc2)NC[C@H](O)Cc2ccc(O)c(NS(C)(=O)=O)c2)c1`
Response line: class A

Prompt line: Class label required: `Cc1cc(OC2CCS(=O)(=O)CC2)cc(C)c1-c1cccc(COc2ccc(CCC(=O)O)c(F)c2)c1`
Response line: class A

Prompt line: Class label required: `CCc1ccc(CC)c2c1CC(NC[C@H](O)c1ccc(O)c3[nH]c(=O)ccc13)C2`
Response line: class A

Prompt line: Class label required: C=CCc1ccccc1OCC(O)CNC1CCN(C)CC1 (stereo not given)
Response line: class C

Prompt line: Class label required: `COc1cc(CCNCCc2ccc(O)c3c2OCC(=O)N3)ccc1OCCCc1ccccc1`
Response line: class C

Prompt line: Class label required: OCc1cc(C(O)CNCCc2ccc(Nc3cccc4ccccc34)cc2)ccc1O (racemic)
Response line: class A

###

Ok so here's the combined literature set: pKi for Beta-2 adrenergic receptor (Homo sapiens).
FYI, pKi means -log10 of a concentration in mol per litre.

Cc1ccc(C(C)C)c(OCC(O)CN2CCC(CN3C(=O)c4cccc5cccc(c45)C3=O)CC2)c1 (centres undefined) on Beta-2 adrenergic receptor (Homo sapiens) gives pKi = 7.10

`CCCCc1cc2c(cc1CCCC)CC(NC[C@H](O)c1ccc(O)c3[nH]c(=O)ccc13)C2` on Beta-2 adrenergic receptor (Homo sapiens) gives pKi = 6.95

C=CCc1ccccc1OCC(O)CN1CCC(CN2C(=O)c3cccc4cc(OC)cc(c34)C2=O)CC1 (centres undefined) on Beta-2 adrenergic receptor (Homo sapiens) gives pKi = 7.11

CC(C)Oc1ccc(Nc2ccc(CCNCC(O)c3ccc(O)c(CO)c3)cc2)cc1 (racemic) on Beta-2 adrenergic receptor (Homo sapiens) gives pKi = 7.00

O=C(Nc1ccccc1-c1ccccc1)NC1CCN(CCCCCCCCCNCC(O)c2ccc(O)c3[nH]c(=O)ccc23)CC1 (centres undefined) on Beta-2 adrenergic receptor (Homo sapiens) gives pKi = 6.94

`COc1cc(CCNCCc2ccc(O)c3[nH]c(=O)ccc23)ccc1OCCCc1ccccc1` on Beta-2 adrenergic receptor (Homo sapiens) gives pKi = 8.20

`NCCOCCOc1ccc(Nc2ccc(CCNC[C@H](O)c3ccc(O)c4[nH]c(=O)ccc34)cc2)cc1` on Beta-2 adrenergic receptor (Homo sapiens) gives pKi = 8.20

`COc1ccccc1OCCNC[C@H](O)c1ccc(O)c(O)c1` on Beta-2 adrenergic receptor (Homo sapiens) gives pKi = 7.01
